Documented % inhibition of biotinylated nAbs across a set of binders
Target: T1, EBV gp350 expressed on the surface of stably transfected CHO cells (Epstein-Barr virus, UniProt P03200 1-907)
T1 construct: also called native gp350; gp350 expressing CHO cells
T1 sequence: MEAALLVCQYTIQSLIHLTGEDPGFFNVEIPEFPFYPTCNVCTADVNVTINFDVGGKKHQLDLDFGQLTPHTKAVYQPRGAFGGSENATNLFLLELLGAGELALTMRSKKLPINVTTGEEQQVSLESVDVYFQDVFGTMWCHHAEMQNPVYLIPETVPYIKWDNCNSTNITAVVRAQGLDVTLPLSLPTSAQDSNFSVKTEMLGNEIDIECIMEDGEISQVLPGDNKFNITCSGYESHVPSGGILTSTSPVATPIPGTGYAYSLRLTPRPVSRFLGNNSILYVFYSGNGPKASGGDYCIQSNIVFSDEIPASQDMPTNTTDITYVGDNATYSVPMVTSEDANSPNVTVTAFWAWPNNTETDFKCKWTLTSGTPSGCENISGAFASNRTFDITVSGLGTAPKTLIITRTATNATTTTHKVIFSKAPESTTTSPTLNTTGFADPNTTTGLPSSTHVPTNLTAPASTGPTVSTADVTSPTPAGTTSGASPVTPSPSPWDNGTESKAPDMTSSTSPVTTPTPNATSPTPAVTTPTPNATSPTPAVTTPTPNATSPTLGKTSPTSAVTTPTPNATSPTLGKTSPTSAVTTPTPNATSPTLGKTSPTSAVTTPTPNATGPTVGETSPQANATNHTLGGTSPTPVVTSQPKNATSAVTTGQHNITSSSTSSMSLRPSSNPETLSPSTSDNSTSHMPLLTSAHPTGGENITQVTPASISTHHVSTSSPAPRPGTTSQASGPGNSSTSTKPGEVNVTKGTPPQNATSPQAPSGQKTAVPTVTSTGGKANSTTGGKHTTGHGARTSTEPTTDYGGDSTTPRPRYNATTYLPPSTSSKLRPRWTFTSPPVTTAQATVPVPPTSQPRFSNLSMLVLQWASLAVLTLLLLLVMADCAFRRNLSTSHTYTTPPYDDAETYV
Assay: cell competition (flow), unlabeled 67.5 µg/ml; competitor: biotinylated m72A1 1 µg/ml
Use % as the unit, but write only the number.

For orientation, consider the following solved cases.
{"columns": ["binder", "% inhibition of biotinylated nAbs [%]"],
 "data": [
  ["HB5 (antibody, V domains shown, also called mHB5) VH: AELVRPGASVKISCKAFGYTFTNHNINWVKQRPGQGLDWIGYINPYNDYTSYNQKFKGKATLTVDKSSNTAYMELSSLTSEDSAVYYCARSEGWLRRGAWFAYWGQGTLVTVSA VL: AILSVSPGERVSFSCRASQSIGTSIHWYQQRTNDSPRLLIKYASESISGIPPRFSGSGSGTDFTLSINSVESEDIADYHCQQSNSWPMLTFGAGTKLELKR", 94],
  ["murine 72A1 (m72A1), anti-EBV gp350 neutralizing antibody from hybridoma HB168 (antibody, V domains shown, also called nAb-72A1; mouse 72A1) VH: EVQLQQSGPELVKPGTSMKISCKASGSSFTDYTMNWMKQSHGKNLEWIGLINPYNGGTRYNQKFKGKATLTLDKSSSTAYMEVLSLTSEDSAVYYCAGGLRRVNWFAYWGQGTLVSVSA VL: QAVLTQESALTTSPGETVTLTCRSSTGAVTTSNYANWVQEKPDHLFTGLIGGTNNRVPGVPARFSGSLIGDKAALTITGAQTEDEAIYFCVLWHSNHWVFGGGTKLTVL", 97]
]}

Moving on to the next binder.
% inhibition of biotinylated nAbs reported for this binder HB11 (antibody, V domains shown) VH: PSLVKPSQTLSLTCSVTGDSITSGFWNWIRKFPGNKLEYMGYISYSGSTYYNPSLKSRISITRDTSKNQYYLQLNSVTTEDTATYYCARGNGGNYDWYFDVWGAGTTVTVSS VL: AIMSASLGEKVTMSCRASSSVNFMNWYQQKSDDSPKLLIYYISNLAPGVPARFSGSGSGNSYSLTISGMEGEDAATYYCQQFTSSPSWTFGGGTKLEIKR : 87
